Values from PubChem BioAssay

- testSummary: viability loss in pontine glioma line – cell-based, SU-DIPG-IV, MIPE4.0, CellTiter-Glo, qHTS, dose response (AID 1347063);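 further: compound exposure lasted 48 hours before the viability readout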
- particulars: CellTiter-Glo ATP luminescence
Records with an inconclusive call do not appear. Calls of active or inactive are those of the source. Cut-off not given; nearly all actives show AC50 up to about 30 µM. Peptide text beside a SMILES is read from it.
Log the outcome using a class from active, inactive

Check out these entries, answers already filled in.
Clc1ccc(C(c2ccccc2Cl)C(Cl)Cl)cc1 (stereo not drawn) : active
COC(=O)[C@H](Cc1ccccc1)NC(=O)[C@@H](N)CC(=O)O (H-Asp-Phe-OMe) : inactive
COc1cc(/C=C/C(=O)CC(=O)/C=C/c2ccc(O)c(OC)c2)ccc1O : active
O=C(c1ccc(F)cc1)C1CCN(CCn2c(=O)[nH]c3ccccc3c2=O)CC1 : inactive
C[C@@H]1CN(c2c(F)c(N)c3c(=O)c(C(=O)O)cn(C4CC4)c3c2F)C[C@H](C)N1 : inactive

Data request: What outcome does the record of this test show for CN1CCN2c3ccccc3Cc3ccccc3C2C1 (stereo not drawn) ?
Data returned: inactive

Data request: Give the logged outcome of this assay for the following compound: CCCc1nc(C)c2c(=O)[nH]c(-c3cc(S(=O)(=O)N4CCN(CC)CC4)ccc3OCC)nn12
Data returned: active

Data request: Please state the recorded outcome for this compound: Cc1cc2cc3c(C)cc(=O)oc3c(C)c2o1
Data returned: active

Data request: Dear all, I need the recorded test outcome for C1CCC(C(CC2CCCCN2)C2CCCCC2)CC1 (stereo not drawn) , thank you.
Data returned: active

====

- testSummary: yeast 75Q aggregation reduction – 75Q-TubU reporter (AID 1593)
- particulars: Yeast 75Q polyglutamine aggregation reporter
I would appreciate it if you labelled entries rule met when score is 1 or higher, otherwise rule not met.

For orientation, consider the following solved cases.
O=C1c2c(O)cccc2Cc2cccc(O)c21 : rule met
CN(C)[C@@H]1C(=O)C(C(N)=O)=C(O)[C@@]2(O)C(=O)C3=C(O)c4c(O)ccc(Cl)c4[C@@H](O)[C@H]3C[C@@H]12 : rule not met
CC(=O)NS(=O)(=O)c1ccc(N)cc1 : rule met

Data request: Decide: is the reported value of score for CCN(CC)CCNc1ccc(CO)c2sc3ccccc3c(=O)c12 equal to or greater than 1?
Data returned: rule met

Data request: Test whether the molecule NC(=NCCCCCCN=C(N)/N=C(\N)Nc1ccc(Cl)cc1)/N=C(\N)Nc1ccc(Cl)cc1 records score of 1 or higher.
Data returned: rule not met

Data request: Textbook exercise: given the entry Nc1c(Br)cc(Br)cc1CNC1CCC(O)CC1 (stereo not given) , state whether its score is greater than or equal to 1.
Data returned: rule met

Data request: Textbook exercise: given the entry Nc1ccc(S(=O)(=O)NC(=O)c2ccccc2)cc1 , state whether its score is greater than or equal to 1.
Data returned: rule met

Data request: Item CCN(CC)CCOC(=O)C(Cc1cccc2ccccc12)CC1CCCO1 (stereo not given) with score of 1 or above?
Data returned: rule met

Data request: Determine whether this molecule has score no lower than 1: CCCCOc1cc(C(=O)NCCN(CC)CC)c2ccccc2n1
Data returned: rule met

Data request: State whether the measured score reaches 1, counting equality as reaching it, for CCOC(=O)[C@H](CCc1ccccc1)N[C@@H](C)C(=O)N1CCC[C@H]1C(=O)O
Data returned: rule met

====

- testSummary: drug combination growth inhibition, ovarian cancer – cell-based, oncology-focused library, rucaparib conditional, profiling panel (AID 1508598)
- particulars: patient-derived ovarian cancer cells, CellTiter-Glo viability, 144 h; at 1.25 µM; OCI-C5x cells; with rucaparib 10 µM; 100% = cells with rucaparib alone
Activity calls are given as the source filed them.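 The calls were made as follows: active = normalized viability below 100% at a tested concentration; inactive = the rest.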
Valid outcomes are listed here; reply with one: active, inactive

Some solved entries appear below for comparison.
O=c1c(O)c(-c2ccc(O)c(O)c2)oc2cc(O)cc(O)c12 : inactive
COc1cc2c(Nc3ccc(Br)cc3F)ncnc2cc1OCC1CCN(C)CC1 : inactive
CCc1c2c(nc3ccc(OC(=O)N4CCC(N5CCCCC5)CC4)cc13)-c1cc3c(c(=O)n1C2)COC(=O)[C@]3(O)CC : active
COC(=O)Nc1nc2ccc(C(=O)c3cccs3)cc2[nH]1 : active
Cn1nnc2c(C(N)=O)ncn2c1=O : inactive

Now for a further compound.
Data request: Test call, this compound: Cc1cc2c(C(C)C)c(O)c(O)c(C=O)c2c(O)c1-c1c(C)cc2c(C(C)C)c(O)c(O)c(C=O)c2c1O
Data returned: inactive

====

- testSummary: Wnt pathway potentiators raising nuclear beta-catenin – imaging, WNT3A-conditioned medium, mouse C2C12, NPC library, primary screen (AID 1117326)
- particulars: at 10 µM
Activity calls are given as the source filed them. Rule as the data show it: active = nuclear beta-catenin stimulation mostly above about 4.2% (no sharp cut-off); inactive = mostly below about 10%.
Please answer using one outcome listed in y (active), n (inactive)

Known results for molecules:
CN1Cc2c(N)cccc2C(c2ccccc2)C1 (centres undefined) : n
CC(C(=O)O)c1ccc(C(=O)c2cccs2)cc1 (centres undefined) : n

Data request: # lookup: test call for CCCCCN(C)CCC(O)(P(=O)(O)O)P(=O)(O)O
Data returned: n

Data request: Hey, what did the test say about CC1(C)S[C@@H]2[C@H](NC(=O)[C@H](N)c3ccccc3)C(=O)N2[C@H]1C(=O)O ?
Data returned: n

Data request: Kindly provide the recorded test outcome for the following molecule: O=C(CCNNC(=O)c1ccncc1)NCc1ccccc1
Data returned: n

====

- testSummary: growth inhibition, single agents and combos, UWB1.289, cell-based, BGB or cisplatin combos, synergistic combos for chromothripsis tumors (AID 1671456);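 further: cells exposed to compound for four days; 0% = vehicle DMSO and 100% = killing by high DMSO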
- particulars: UWB1.289 ovarian carcinoma cells, measured here: inhibition with BGB combination, at 0.05 µM, stronger effect = higher value
Kindly return Satisfied if reported inhibition is no lower than -10%; return Not satisfied if it is lower.

Example entries and their recorded answers appear below.
Nc1[nH]c(=O)ncc1F : Not satisfied
O=C(O)CCCCCCCC(=O)O : Not satisfied
Cc1ccnc2c1NC(=O)c1cccnc1N2C1CC1 : Not satisfied

Data request: In plain terms: is recorded inhibition at least -10% for C[C@H]1COc2c(C3(N)CC3)c(F)cc3c(=O)c(C(=O)O)cn1c23 ?
Data returned: Satisfied

Data request: Hi team, for Nc1nc2c(ncn2COC(CO)CO)c(=O)[nH]1 , is the recorded inhibition at or above -10%?
Data returned: Not satisfied

====

- testSummary: EMT-state selective cytotoxicity in co-culture – imaging, PC-3E GFP, TEM4-18 mCherry, primary screen (AID 1345086);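 further: cells exposed to compound for 72 h before imaging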
- particulars: PC-3E GFP / TEM4-18 mCherry co-culture, imaging cell counts; measured here: epithelial PC-3E GFP cell survival; at 1 µM
Please respond with 1 when measured normalised cell number is strictly beneath 1, and with 0 in all other cases.

CCCc1ncc(C[n+]2ccccc2C)c(N)n1 : 0
Cc1cccc(C(=O)O)c1O : 1
C[n+]1c2cc(N)ccc2cc2ccc(N)cc21 (tested in a mixture with another compound) : 1
OC(CCN1CCCCC1)(c1ccccc1)c1ccccc1 : 0
CC(C)NNC(=O)c1ccncc1 : 0

# next compound below
Data request: Could you please tell me whether normalised cell number recorded for COc1cc2c3cc1Oc1cc(ccc1O)C[C@@H]1c4c(cc(OC)c(O)c4Oc4ccc(cc4)C[C@@H]3N(C)CC2)CC[N+]1(C)C is less than 1?
Data returned: 0

====

- testSummary: compounds altering Cy5-DNA-NS3h complex signal – biochemical, LOPAC1280, artefact control for HCV NS3 helicase inhibitor project (AID 687037)
- particulars: Cy5-DNA-NS3h complex fluorescence interference counterscreen
recordedMetric: fluorescence ratio (interference)
Response field accepts a number only; no unit should be typed.

CC(C)(Oc1ccc(CCNC(=O)c2ccc(Cl)cc2)cc1)C(=O)O : 1.1
CC(=O)OC(C)C[N+](C)(C)C (configuration not stated) : 0.9
CCN(CC)CCNC(=O)c1cc(S(C)(=O)=O)ccc1OC : 0.9
C[N+](C)(C)CCCCCC[N+](C)(C)C : 1

Data request: Return reported fluorescence ratio (interference); argument: Cc1cc(C(C)(C)C)c(O)c(C)c1CC1=NCCN1
Data returned: 0.9

====

- System: Aerobactin synthetase IucA (Klebsiella pneumoniae)
- testSummary: inhibition of K. pneumoniae IucA enzyme – biochemical, Tocris library, absorbance (AID 1345561);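 further: 100% = enzyme without compound and 0% = no enzyme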
- particulars: purified IucA enzyme assay, absorbance (OD) read-out; stronger effect = lower value; concentration not given here
The entries below come with measured remaining activity values attached.
Your answer is read as %, so omit the unit and give the number.

For orientation, consider the following solved cases.
O=C(NCCO[N+](=O)[O-])c1cccnc1 : 106
COc1cc(-c2ccc(=O)[nH]n2)ccc1OC(F)F : 112
CN(Cc1cnc2nc(N)nc(N)c2n1)c1ccc(C(=O)N[C@@H](CCC(=O)O)C(=O)O)cc1 : 114
C=C[C@@]1(C)CC(=O)[C@]2(O)[C@@]3(C)[C@@H](O)CCC(C)(C)[C@@H]3[C@H](O)[C@H](OC(C)=O)[C@@]2(C)O1 : 113
O=C(c1ccc(F)cc1)C1CCN(CCn2c(=S)[nH]c3ccccc3c2=O)CC1 : 106

Data request: Could you share which remaining activity value was measured for CC(Cc1ccccc1)(NC(=O)CN)c1ccccc1 (configuration not stated) ?
Data returned: 116

Data request: Query (compound): CN1CCC[C@@H]1CCO[C@](C)(c1ccccc1)c1ccc(Cl)cc1 ; field requested: remaining activity
Data returned: 109

Data request: Which remaining activity value is on record for CSc1ccc2c(c1)C(N1CCN(C)CC1)Cc1ccccc1S2 (configuration not stated) ?
Data returned: 107

Data request: Entry CN(C)CCCSc1ccccc1NC(=O)/C=C/c1ccccc1 has what remaining activity?
Data returned: 115

Data request: I would be grateful if you could share the reported remaining activity for CCCOc1ccccc1-c1nc2n[nH]nc2c(=O)[nH]1 .
Data returned: 122

Data request: Value lookup for remaining activity; key = CCc1nn(CCCN2CCN(c3cccc(Cl)c3)CC2)c(=O)n1CCOc1ccccc1
Data returned: 104

Data request: Record request: remaining activity value, item NS(=O)(=O)c1cc2c(cc1Cl)NC(C1CC3C=CC1C3)NS2(=O)=O (configuration not stated)
Data returned: 94.1

Data request: Record request: remaining activity value, item Cn1nnc2c(C(N)=O)ncn2c1=O
Data returned: 102

Data request: What remaining activity value was documented for this compound, CC(C)(Oc1ccc(Cl)cc1)C(=O)O ?
Data returned: 92.9

Data request: Query: remaining activity; subject: COc1cccc2c1C(=O)c1c(O)c3c(c(O)c1C2=O)C[C@@](O)(C(=O)CO)C[C@@H]3O[C@H]1C[C@H](N)[C@H](O)[C@H](C)O1
Data returned: 110

Data request: Looking for the measured remaining activity of Nc1nc(N)nc(-c2cc(Cl)ccc2Cl)n1 , can you help?
Data returned: 103

Data request: // returns reported remaining activity for input NC(=O)OCC(COC(N)=O)c1ccccc1
Data returned: 104

Data request: Which remaining activity is listed for Oc1ccc(C2CNCCc3c2cc(O)c(O)c3Cl)cc1 (configuration not stated) ?
Data returned: 110

Data request: Any idea what remaining activity was measured for CCC(=O)O[C@]1(C(=O)SCF)[C@H](C)C[C@H]2[C@@H]3C[C@H](F)C4=CC(=O)C=C[C@]4(C)[C@@]3(F)[C@@H](O)C[C@@]21C ?
Data returned: 125

Data request: Consider the compound shown here: COc1ccc(CN(CCN(C)C)c2ccccn2)cc1 What is its recorded remaining activity?
Data returned: 118

Data request: Given CNCCCCOc1ccccc1Cc1ccccc1 , state its recorded remaining activity.
Data returned: 120

Data request: Could you tell me which remaining activity is on file for O=C(O)CN1C(=O)c2cccc3cccc(c23)C1=O ?
Data returned: 110
